# credit: paper PMC4912613

# Test system: P. falciparum strain 3D7
# Method notes: Asexual blood stage 3H-hypoxanthine incorporation assay, 3D7
# Format: cell-based, Plasmodium falciparum
# Measurement context: Plasmodium falciparum, 3D7, read-out: 3D7 EC50
pEC50: −log10 of the molar value.
Result type: pEC50

Cl.c1ccc2c(NCCCCCCNc3c4c(nc5ccccc35)CCCC4)c3c(nc2c1)CCCC3 7.06

====

Parameter EC50: see the listing below.
# Method notes: Hepatocyte toxicity
# Assay type: cell-based, human
# Measurement context: human; read-out: HepG2 EC50 (hepatocyte toxicity)

Compound	Uom	EC50
COc1ccc(C[C@H](N)C(=O)N[C@H]2[C@@H](O)[C@H](n3cnc4c(N(C)C)ncnc43)O[C@@H]2CO)cc1 [puromycin, reference compound]	nM	254
O=C1C(O)=C([C@H]2CC[C@H](c3ccc(Cl)cc3)CC2)C(=O)c2ccccc21 [atovaquone, reference compound]	nM	7720
CN(C)S(=O)(=O)c1cc(-c2ccc3nccc(-c4cccc(S(N)(=O)=O)c4)c3c2)cnc1N	nM	146
